Target: T1, human C5 R885H-mmh (human, UniProt P01031 19-1676)
T1 construct: also called human C5 variant R885H
Test: SPR, mAb captured via anti-hFc, 37C
attributeMeasured: koff (s⁻¹)
Give bare numbers, in s⁻¹.

Need koff, item H4H12163P (antibody, human IgG4, V domains shown, Human IgG4 Fc with S108P hinge mutation (H4H)) VH: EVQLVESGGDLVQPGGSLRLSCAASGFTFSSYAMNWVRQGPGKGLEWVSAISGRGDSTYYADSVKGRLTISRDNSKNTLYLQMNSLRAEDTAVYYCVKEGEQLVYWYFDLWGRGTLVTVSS VL: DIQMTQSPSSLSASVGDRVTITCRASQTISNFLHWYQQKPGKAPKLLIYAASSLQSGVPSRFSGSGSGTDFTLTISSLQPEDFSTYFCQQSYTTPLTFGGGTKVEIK
0.0029
